# experiment-summary: cAMP Responsive Elements (CRE) small molecule agonists, cell-based qHTS assay: qHTS cell viability counter screen (AID 2060914); further: potency means the concentration at half of the fitted maximal effect;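 further: viability read after 3 h of compound exposure; nearly all actives have a fitted effect of over 50% in size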
# assay-conditions: CRE-bla HEK293T viability, CellTiter-Glo luminescence, 5 h; series mostly up to 92.4 µM
Inconclusive results are not listed. Activity calls are given as the source filed them. The call rests on the fitted dose curve; in most records, active means well fitted cell-killing curve with a large enough effect in the repeat runs; inconclusive means weak or mixed curves, or effect the other way; inactive means flat fitted curve, though single readings scatter.
Each entry below carries its recorded Potency.
experimental-readout: Potency

structure-smiles	experimental-readout	test-result
C=CC(=O)OCC(CO)(COCC(COC(=O)C=C)(COC(=O)C=C)COC(=O)C=C)COC(=O)C=C	Potency	42.7 µM (active)
CCN=C1C=CC(=C(c2ccc(N(CC)CC)cc2)c2ccc(N(CC)CC)cc2)c2ccccc21	Potency	30.5 µM (active)
O=C(O)c1cccc(-c2noc(-c3ccccc3F)n2)c1	Potency	21.1 µM (active)

---

# experiment-summary: cAMP Responsive Elements (CRE) small molecule agonists, cell-based qHTS assay: qHTS cell viability counter screen (AID 2060914);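 further: viability read after 3 h of compound exposure; nearly all actives have a fitted effect of over 50% in size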; on activity change, negative = cytotoxicity: on the % scale 0 is the no-effect control and ±100 the full control effect
# assay-conditions: CRE-bla HEK293T viability, CellTiter-Glo luminescence, 5 h; series mostly up to 92.4 µM
# From the text: National Center for Advancing Translational Sciences [NCATS] Division of Preclinical Innovation [DPI] U.S. Environmental Protection Agency [EPA] National Institutes of Environmental Health Sciences [NIEHS] National Toxicology Program [NTP] U.S. Food and Drug Administration [FDA] CREB (cyclic-AMP Responsive Element Binding Protein) is a cellular transcription factor. […] The activation of the report gene under culture conditions can be detected by fluorescence intensity. […]
Results filed as inconclusive are left out. Activity calls are given as the source filed them. The call rests on the fitted dose curve; in most records, active means well fitted cell-killing curve with a large enough effect in the repeat runs; inconclusive means weak or mixed curves, or effect the other way; inactive means flat fitted curve, though single readings scatter.

compound	activity change, negative = cytotoxicity
CC1=CC(=O)CC(C)(C)C1=O	inactive
O=S(=O)(O)CCCN1CCOCC1	inactive
Cn1cnc2c(=O)[nH]c(N)nc21	inactive
CS(=O)(=O)c1ccc([C@@H](O)[C@@H](CF)NC(=O)C(Cl)Cl)cc1	inactive
CCOCCn1c(N2CCCN(C)CC2)nc2ccccc21	inactive
CC(=O)Nc1ccc(CC(=O)O)cc1	inactive
CC(C)(CC(=O)O)C(=O)O	inactive
CCOC(=O)C(C)C(C)=O (centres undefined)	inactive
CCOc1ccc(O)cc1	inactive
CC1(C)[C@@H]2CC[C@]3(C2)[C@@H]1C(=O)CCC3(C)C	inactive
CCCCCCCC/C=C/CCCOC(C)=O	inactive
CC(C)(C(=O)c1cccnc1)c1cccnc1	inactive
CCOC(OCC)C(=O)c1ccccc1	inactive
O=C1C(c2[nH]c3ccccc3c2O)=Nc2ccccc21	inactive

---

# experiment-summary: cAMP Responsive Elements (CRE) small molecule agonists, cell-based qHTS assay: qHTS cell viability counter screen (AID 2060914);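 further: viability read after 3 h of compound exposure; nearly all actives have a fitted effect of over 50% in size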; on activity change, negative = cytotoxicity: on the % scale 0 is the no-effect control and ±100 the full control effect
# assay-conditions: CRE-bla HEK293T viability, CellTiter-Glo luminescence, 5 h; series mostly up to 92.4 µM
Results filed as inconclusive are left out. Calls of active or inactive are those of the source. Calls come from the whole dose curve; as a rule, active = well fitted cell-killing curve with a large enough effect in the repeat runs; inconclusive = weak or mixed curves, or effect the other way; inactive = flat fitted curve, though single readings scatter.
experimental-readout: activity change, negative = cytotoxicity

compound	experimental-readout	test-result
CCCCOC(=O)CC#N	activity change, negative = cytotoxicity	inactive
CC/C=C\CCOC(=O)C(C)C	activity change, negative = cytotoxicity	inactive
OCc1ccccc1	activity change, negative = cytotoxicity	inactive
COc1cccc(OC)c1	activity change, negative = cytotoxicity	inactive
FC(F)(F)C(Cl)(Cl)Cl	activity change, negative = cytotoxicity	inactive
COC(=O)/C=C/C(C)=C\C=C\C(C)=C\C=C\C=C(C)\C=C\C=C(C)\C=C\C(=O)O	activity change, negative = cytotoxicity	inactive
CCCCCCC(CCCCCCCCCCC(=O)OCC(COC(C)=O)OC(C)=O)OC(C)=O (configuration not stated)	activity change, negative = cytotoxicity	inactive
CNCCCC1c2ccccc2C=Cc2ccccc21	activity change, negative = cytotoxicity	inactive
CC(=O)c1ccccc1	activity change, negative = cytotoxicity	inactive
CN1CCC(N(Cc2cccs2)c2ccccc2)CC1	activity change, negative = cytotoxicity	inactive
CCCCCCCCCCO	activity change, negative = cytotoxicity	inactive
CC[N+](CC)(CC(=O)Nc1c(C)cccc1C)Cc1ccccc1 (tested in a mixture with another compound)	activity change, negative = cytotoxicity	inactive
CCCCCCCCCCCCO	activity change, negative = cytotoxicity	inactive
CC(=O)S[C@@H]1CC2=CC(=O)CC[C@]2(C)[C@H]2CC[C@@]3(C)[C@@H](CC[C@@]34CCC(=O)O4)[C@H]12	activity change, negative = cytotoxicity	inactive
CCCCCCCCCOS(=O)(=O)O	activity change, negative = cytotoxicity	inactive
CN(C)CC/C=C1\c2ccccc2COc2ccccc21	activity change, negative = cytotoxicity	inactive
CC(=O)Oc1ccc(C(C)=O)cc1	activity change, negative = cytotoxicity	inactive
CS(=O)(=O)c1ccc(-c2cn3ccccc3n2)cc1	activity change, negative = cytotoxicity	inactive
O=c1[nH]c(=O)c2[nH]c(=O)[nH]c2[nH]1	activity change, negative = cytotoxicity	8.03% [at 8.39 µM] (inactive)
COC(/C=C(\C)CCC=C(C)C)OC	activity change, negative = cytotoxicity	inactive
C1COCO1	activity change, negative = cytotoxicity	inactive
CN(C)[C@@H]1C(=O)C(C(N)=O)=C(O)[C@@]2(O)C(=O)C3=C(O)c4c(O)cccc4C[C@H]3C[C@@H]12	activity change, negative = cytotoxicity	inactive
Cc1ccc(C(C)(C)O)cc1	activity change, negative = cytotoxicity	inactive
CN(C)[C@@H](CCOc1cccc2ccccc12)c1ccccc1	activity change, negative = cytotoxicity	inactive
C=CC(=O)OCCCCCCCC	activity change, negative = cytotoxicity	inactive
NCCNC(=O)c1ccc(Cl)cn1	activity change, negative = cytotoxicity	inactive
Cc1oncc1C(=O)Nc1ccc(C(F)(F)F)cc1	activity change, negative = cytotoxicity	inactive

Data origin, for the record: PubChem BioAssay (Tox21)
